# procedure-text: MTT cytotoxicity assay
# Assay type: cell-based, canine
# condition-details: dog, MDCK cells
Would you kindly list CC50 for each of these compounds?

Suppose we examine the compound Oc1c(Br)cc(/C=N/Nc2nc3ccccc3s2)c(O)c1Br [PA-35] ; what CC50 value has been reported? 75 µM

Suppose we examine the compound Nc1c(C(=O)O)cc(O)c2c1C(=O)c1ccccc1C2=O [PA-24] ; what CC50 value has been reported? 180 µM

Suppose we examine the compound C=CCN1C(=O)/C(=C\c2cccn2-c2ccc([N+](=O)[O-])cc2)C(=O)NC1=S [PA-48] ; what CC50 value has been reported? 20 µM

Suppose we examine the compound O=C1N=c2ccccc2=C1NNC1=NC(=O)/C(=C2/C(=O)Nc3ccccc32)S1 [ANA-0] ; what CC50 value has been reported? > 400 µM

Suppose we examine the compound CN(C)c1ccc(/C=C2\S/C(=N\N=C3\C(=O)Nc4ccccc43)NC2=O)cc1 [PA-30] ; what CC50 value has been reported? > 300 µM

Data provenance: paper PMC4783701
